# tested_system: human CAT2B (SLC7A2B) (Homo sapiens, UniProt P52569)
# Construct: expressed in transfected cells
# Sequence (P52569 whole entry): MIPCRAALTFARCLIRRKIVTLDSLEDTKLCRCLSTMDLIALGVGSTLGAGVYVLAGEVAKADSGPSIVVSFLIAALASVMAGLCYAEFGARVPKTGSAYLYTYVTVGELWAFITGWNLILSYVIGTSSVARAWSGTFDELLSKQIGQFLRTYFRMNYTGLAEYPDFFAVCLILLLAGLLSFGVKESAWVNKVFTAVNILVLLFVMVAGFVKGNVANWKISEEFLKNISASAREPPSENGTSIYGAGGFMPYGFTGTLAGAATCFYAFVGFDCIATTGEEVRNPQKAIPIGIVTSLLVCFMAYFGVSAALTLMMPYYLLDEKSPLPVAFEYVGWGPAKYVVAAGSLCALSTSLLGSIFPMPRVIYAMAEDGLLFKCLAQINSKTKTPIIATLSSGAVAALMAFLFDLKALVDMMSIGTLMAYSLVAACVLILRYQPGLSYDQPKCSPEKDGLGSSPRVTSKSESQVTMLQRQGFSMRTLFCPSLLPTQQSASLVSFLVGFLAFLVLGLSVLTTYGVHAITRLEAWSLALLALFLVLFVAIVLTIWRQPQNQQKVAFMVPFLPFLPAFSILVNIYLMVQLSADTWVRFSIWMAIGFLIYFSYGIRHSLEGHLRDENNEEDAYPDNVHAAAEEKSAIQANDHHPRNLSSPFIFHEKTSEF
# method_description: Inhibition of CAT2B-mediated substrate uptake in HEK CAT2B cells
# Assay type: cell-based
# recorded_conditions: substrate ADMA 100 µmol/l; inhibitor 1–100000 µmol/l; read-out: IC50 for inhibition of CAT2B-mediated uptake of ADMA
# Method: Cell lines and basic cell culture conditions have previously been described, [24]. […] The transport assays were performed as previously described with minor modifications, [24]. […] In order to identify the period of linear L-homoarginine uptake time dependence was assessed. […] Statistical analysis was performed using GraphPad Prism 5 (version 5.01, 2007, GraphPad Software, San Diego, CA, USA). […] KM-values for the uptake transport were calculated using Michaelis–Menten enzyme kinetics. […]
measure_name: pIC50
Numbers only, as −log10 of the molar value.

Bench note: what pIC50 did `NC(N)=NCCCC[C@H](N)C(=O)O` show? 2.73
